Assignment: determine reported Ki for the given compounds.
biological target: Dipeptidyl peptidase 2 (Homo sapiens); assay: Inhibitory activity against recombinant DPP2

Exercise: Field request: Ki | item: `CC(C)([C@H](N)C(=O)N1C[C@@H](F)C[C@H]1C#N)S(=O)(=O)Cc1ccc(F)cc1`
Solution: > 22.4 µM

Exercise: What measured Ki goes with `CC(C)(SCc1ccncc1)[C@H](N)C(=O)N1C[C@@H](F)C[C@H]1C#N` ?
Solution: > 22.4 µM

Exercise: May I ask what Ki has been recorded for `CC(C)([C@H](N)C(=O)N1C[C@@H](F)C[C@H]1C#N)S(=O)(=O)Cc1ccc(-c2ccccc2)cc1` ?
Solution: > 22.4 µM

Exercise: GET /values?readout=Ki&item= `CC(C)([C@H](N)C(=O)N1C[C@@H](F)C[C@H]1C#N)S(=O)(=O)Cc1csc2ccc(Cl)cc12`
Solution: > 22.4 µM

Exercise: # input compound: `COc1ccc(CS(=O)(=O)C(C)(C)[C@H](N)C(=O)N2C[C@@H](F)C[C@H]2C#N)cc1` ; wanted: its Ki
Solution: > 22.4 µM

Exercise: Given the compound `CC(C)([C@H](N)C(=O)N1C[C@@H](F)C[C@H]1C#N)S(=O)(=O)Cc1cccc(Oc2ccccc2)c1` , what is its reported Ki?
Solution: > 22.4 µM

Exercise: Would you mind telling me what Ki value was observed for `CC(=O)NCSC(C)(C)[C@H](N)C(=O)N1C[C@@H](F)C[C@H]1C#N` ?
Solution: > 22.4 µM

Exercise: Any idea what its Ki is? The compound is COc1ccc(C[S+]([O-])C(C)(C)[C@H](N)C(=O)N2C[C@@H](F)C[C@H]2C#N)cc1 (stereo partly drawn)
Solution: > 22.4 µM

###

assay: Half life cyclization at 37 C, pH 7.2; format: ADME
MEASURE: half-life (days)
All answers are understood in days, so give the number only.

Exercise: What does the data say about its half-life? Entry: `COc1ccc(CS(=O)(=O)C(C)(C)[C@H](N)C(=O)N2CCC[C@H]2C#N)cc1`
Solution: 15

###

Kindly supply the reported half-life values for the records listed here.
assay: Half life in rat; format: ADME, organism-based; details: in vivo
Return type: number; implicit unit h.

Exercise: Sample `COc1ccc(CS(=O)(=O)C(C)(C)[C@H](N)C(=O)N2CCC[C@H]2C#N)cc1` — what was its half-life?
Solution: 4.2

Exercise: Endpoint output: half-life of `COc1ccc(CS(=O)(=O)C(C)(C)[C@H](N)C(=O)N2C[C@@H](F)C[C@H]2C#N)cc1` . Value?
Solution: 2.3

###

experiment: Oral bioavailability in rat; format: ADME, organism-based; details: in vivo
MEASURE: bioavailability (%)
Provide only the numeric value, understood in %.

Exercise: Look at this molecule and give its reported bioavailability. `COc1ccc(CS(=O)(=O)C(C)(C)[C@H](N)C(=O)N2CCC[C@H]2C#N)cc1`
Solution: 4
